Reference for the values: PubChem BioAssay (NCI)

# assay overview: NCI Yeast Anticancer Drug Screen. Data for the mec2-1 strain (AID 157)
# condition notes: S. cerevisiae mec2-1 strain, at 5.0 µM (retest, dose inferred, filed as 0.5)
# Protocol: Growth inhibition of yeast strains with defined genetic alterations is measured as a screen for potential anti-cancer activity. Selected strains with alterations in DNA damage repair or cell cycle control were exposed to compounds and growth inhibition was measured relative to vehicle treated controls. The strain used in this assay is mec2-1
The panel holds about 79,000 compounds, 15% with a hit somewhere; the sample as a whole holds those more often. Calls of active or inactive are those of the source. Rule as the data show it: active = growth inhibition above about 70%; inactive = the rest.
Outcome field: choose from active, inactive

Consider the worked cases shown below.
1) CC1=C(C(=O)Nc2ccccc2)C(c2cccc3ccccc23)C(C(=O)Nc2ccccc2)=C(C)N1    inactive
2) COC1/C=C\OC2(C)Oc3c(C)c(O)c4c(c3C2=O)C(=O)C=C(NC(=O)C(C)=C/C=C\C(C)C(O)C(C)C2OC(C)(C)OC(C1C)C2C)C4=O (stereo not given)    inactive
3) CCCCCCCCCSC(=S)N(C)NC(=O)c1ccccn1    inactive

Lookup: Hello, I am checking results. What call was entered for C/C=C/C/C=C/CCC(=O)C1OC1C(N)=O (stereo not given) ?
Found: active

Lookup: Recorded test call requested for "CC1CCN(CCCOC(=O)c2ccccc2)CC1"
Found: inactive

Lookup: // outcome(item) with item = CC(C)=CCC/C(C)=C/CCC1(C)C=Cc2c(c3ccccc3oc2=O)O1 (stereo not given)
Found: inactive

Lookup: Assay outcome for "[N-]=[N+]=Nc1c(-c2ccccc2)c(Cl)nc2ccccc12" : what was it?
Found: inactive

* * *

Reported growth inhibition by item:
# assay overview: NCI Yeast Anticancer Drug Screen. Data for the rad50 strain (AID 155);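 also: 0% = growth of vehicle-only cultures of the same strain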
# condition notes: S. cerevisiae rad50 strain growth inhibition; at 50.0 µM (retest, dose inferred, filed as 5.0); stronger effect = higher value
The panel holds about 79,000 compounds, 15% with a hit somewhere; the sample as a whole holds those more often.
# unit: % | format: bare number

1. C[C@H]1CC[C@@H]2[C@@H](C)[C@H]3[C@H](C[C@H]4[C@@H]5CC=C6C[C@@H](O)CC[C@]6(C)[C@H]5C[C@H](O)[C@]34C)N2C1    8
2. COc1cccc2c1N[S@](=O)S2    95
3. CCCCCCCCCCCCCCCCCC[N+](C)(C)Cc1ccc(C[N+](C)(C)CCCCCCCCCCCCCCCCCC)cc1    22
4. CC1CCN(c2cc(-c3cc4ccccc4o3)oc(=O)c2C#N)CC1    1
5. CCCCCCCCCCCCOC(=O)C[N+]1(C)CCCCC1    99

Lookup: Suppose we examine the compound Oc1ccc(C2CCc3ccccc32)cc1 (stereo not given) ; what growth inhibition value has been reported?
Found: 98

Lookup: Reported growth inhibition, compound "COC(=O)CCCCCOS(=O)(=O)c1ccc(C)cc1" : ____
Found: -5

Lookup: Query: growth inhibition; subject: "COc1cc(C(=O)CBr)c2ccc(Cl)cc2n1"
Found: 97

Lookup: Reported growth inhibition for "CCOc1ccc(C=Nc2ccc(/C=C(\C)C(=O)OCCC(C)C)cc2)cc1" : what is it?
Found: 98

Lookup: Sample CCN(CC)CC(O)CNc1cc(C)nc(/N=C(\N)Nc2ccc(Cl)c(Cl)c2)n1 (stereo not given) — what was its growth inhibition?
Found: 64

* * *

# assay overview: NCI Yeast Anticancer Drug Screen. Data for the bub3 strain (AID 167)
# condition notes: S. cerevisiae bub3 mutant strain, at 50.0 µM, stronger effect = higher value
About 79,000 compounds went through this panel and 15% of them were active in at least one assay; those are over-represented in the sample as a whole.
Recorded growth inhibition by entry
Give the number; % is assumed, so skip it.

1. COC1/C=C\OC2(C)Oc3c(C)c(O)c4c(c3C2=O)C(=O)C=C(NC(=O)C(C)=C/C=C\C(C)C(O)C(C)C2OC(C)(C)OC(C1C)C2C)C4=O (stereo not given)    14.9
2. Cc1ccc(NC(=O)CCCC(=O)C(C#N)c2ccccc2C)cc1C (stereo not given)    5.75
3. O=C(Cc1c[nH]c2ccccc12)N/N=C/c1ccc(Cl)cc1[N+](=O)[O-]    19.5
4. CNC(=S)N(C)C(=S)Nn1c(=O)c(C)nn(C)c1=S    78.4
5. O=C1/C(=C(/Br)I)c2ccccc2-c2ccccc21    75.7

Lookup: Using the record for "CCCCCCCCCCCCCCCCCC[N+](C)(C)Cc1ccc(C[N+](C)(C)CCCCCCCCCCCCCCCCCC)cc1" , report its growth inhibition.
Found: 5.05

Lookup: Which measured growth inhibition value corresponds to CSC1=Nc2ccccc2SC(c2ccccc2)C1c1ccccc1 (stereo not given) ?
Found: 53.3

Lookup: growth inhibition for CC12CCC3C(CCC4CC(O)CCC43C)C1CC1C2=NOC1O (stereo not given) ?
Found: 73

Lookup: Quick check: growth inhibition of "Cc1cc(Br)c(P(=O)(O)O)cc1[N+](=O)[O-]" ?
Found: 4.4

Lookup: Given "O=C1C=CC(=O)C(c2ccc(Cl)cc2)=C1" , state its recorded growth inhibition.
Found: 92

Lookup: Param item = "COc1cc(C=O)c(Cl)cc1O" ; retrieve measured growth inhibition.
Found: 44.5

* * *

# assay overview: NCI Yeast Anticancer Drug Screen. Data for the bub3 strain (AID 167)
# condition notes: S. cerevisiae bub3 mutant strain, at 50.0 µM (retest, dose inferred, filed as 5.0)
The panel holds about 79,000 compounds, 15% with a hit somewhere; the sample as a whole holds those more often. The source made the active and inactive calls. Cut-off read from the data, not from the text of the source: active = growth inhibition above about 70%; inactive = the rest.
# output must be one of t (active), f (inactive)

1) Cc1cc(NC(=S)SCc2ccc3c(c2)OCO3)ccc1Br    t

Lookup: Fill in: this test's call for "O=[N+]([O-])C(=C(Nc1ccccc1)Nc1ccccc1)C(Cl)=C(Cl)Cl" is ___
Found: t

Lookup: Please share the test call associated with "COc1cc(C(=O)CBr)c2ccc(Cl)cc2n1" .
Found: t

Lookup: Can you look up the reported call for "O=S(=O)(Nc1ccccc1Cl)c1ccccc1" for me?
Found: t

Lookup: State the result this test recorded for Cc1ccc2c(c1)C1C(CC2)C2C(=O)OC(=O)C2C2CCc3ccc(C)cc3C21 (configuration not stated) .
Found: t

Lookup: What call does the record list for "Oc1cc(-[n+]2ccc3ccccc3c2)c(O)c2ccccc12" ?
Found: t

Lookup: Can you look up the reported call for "O=C1C=CC(=O)N1CCc1ccccc1" for me?
Found: t

Lookup: Called result for "CCOP(=O)(OCC)/C(C#N)=C/c1ccc(C(F)(F)F)cc1"
Found: t

Lookup: Tell me the recorded outcome of this test for "O=C1C=CC(=O)N1c1ccc(Cl)cc1" .
Found: t

Lookup: Kindly provide the recorded test outcome for the following compound: "CCOC(=O)C(C)(C)C"
Found: f

Lookup: For "COc1cc(Cc2n[nH]c(=S)n2-c2ccccc2)c(S(=O)(=O)N2CCOCC2)cc1OC" , which call appears in the assay record?
Found: f

Lookup: Just curious, what result did "CC(C)c1ccc(C(=O)C2CC2)cc1" get here?
Found: f

* * *

# assay overview: NCI Yeast Anticancer Drug Screen. Data for the sgs1 mgt1 strain (AID 161);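 also: 0% = growth of cultures given vehicle only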
# condition notes: S. cerevisiae sgs1 mgt1 strain, at 50.0 µM, stronger effect = higher value
# Method: Growth inhibition of yeast strains with defined genetic alterations is measured as a screen for potential anti-cancer activity. Selected strains with alterations in DNA damage repair or cell cycle control were exposed to compounds and growth inhibition was measured relative to vehicle treated controls. The strain used in this assay is sgs1 mgt1
The panel holds about 79,000 compounds, 15% with a hit somewhere; the sample as a whole holds those more often.
The molecules listed here are annotated with their growth inhibition.
Hi! Could you send only the number? It should be in %, unit omitted.

Worked examples, 5 molecules total:
1. CC(=O)OCC1OC(n2cnc3c(Cl)nc(Cl)nc32)C(OC(C)=O)C1OC(C)=O (stereo unspecified)    75.3
2. c1ccc(CN2CCC3(CC2)SSC2(CCN(Cc4ccccc4)CC2)S3)cc1    61.2
3. SCCCCCCCCCCS    99
4. Cc1ccc(C(=O)CC(O)(C(F)(F)F)C(F)(F)F)cc1[N+](=O)[O-]    92.2
5. COc1cc(Cc2n[nH]c(=S)n2-c2ccccc2)c(S(=O)(=O)N2CCOCC2)cc1OC    -0.7

Now consider the entry below.
Lookup: # query: growth inhibition of entry COC(C(=O)O)c1ccccc1 (stereo unspecified)
Found: 74.8

* * *

# assay overview: NCI Yeast Anticancer Drug Screen. Data for the cln2 rad14 strain (AID 165);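 also: 0% = growth equal to vehicle treated cultures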
# condition notes: S. cerevisiae cln2 rad14 strain, at 50.0 µM (retest, dose inferred, filed as 5.0)
This is part of a sample that, as a whole, favours compounds with a hit. Of some 79,000 tested, about 15% had one in any assay. The source made the active and inactive calls. Cut-off read from the data, not from the text of the source: active = growth inhibition above about 70%; inactive = the rest.
Return exactly one item of active, inactive

1. Oc1ccc(SCc2cc(O)ccc2O)cc1    inactive
2. CCCCCCCCCC[N+](C)(C)CCC[N+](C)(C)CCCCCCCCCC    active
3. CC1(C)/C=C/C2=Nc3cc(Br)c(Br)c(Br)c3C23CC(=O)N3/C=C(\Cl)c2nc(Br)[nH]c21 (stereo not given)    active
4. O=C1C(Cl)=C(NCCC2CCCN3CCCCC23)C(=O)c2ccccc21 (stereo not given)    inactive
5. CC(C)c1cccc(O)c1O    inactive

Lookup: Each molecule tested received a call. Report the one for "NNc1c(F)c(F)c(-c2c(F)c(F)c(NN)c(F)c2F)c(F)c1F" .
Found: active

Lookup: In this assay, the call recorded for "O=C(CCCl)Nc1ccc(CCC(=O)c2ccccc2NC(=O)CCCl)cc1" was what?
Found: inactive

Lookup: For this molecule, state the assay outcome: CC12CCC(O)CC1=CCC1C2CCC2(C)C(NC(=O)C(Cc3ccc(O)cc3)NC(=O)OCc3ccccc3)CCC12 (stereo not given)
Found: active

Lookup: What outcome does the record of this test show for CC(NC(=O)C(Cc1ccccc1)NC(=O)c1ccc[n+](Cc2ccccc2)c1)C(N)=O (stereo not given) ?
Found: inactive

Lookup: In this assay, the call recorded for CC(=O)OCC1OC(n2c(O)c(N=NC(N)=S)c3ccc([N+](=O)[O-])cc32)C(OC(C)=O)C1OC(C)=O (stereo not given) was what?
Found: inactive
